Hello, the source for this data is ChEMBL document CHEMBL1153399, in case you need it.

Target: Aminopeptidase N (Sus scrofa, UniProt P15145)
Sequence (P15145 whole entry): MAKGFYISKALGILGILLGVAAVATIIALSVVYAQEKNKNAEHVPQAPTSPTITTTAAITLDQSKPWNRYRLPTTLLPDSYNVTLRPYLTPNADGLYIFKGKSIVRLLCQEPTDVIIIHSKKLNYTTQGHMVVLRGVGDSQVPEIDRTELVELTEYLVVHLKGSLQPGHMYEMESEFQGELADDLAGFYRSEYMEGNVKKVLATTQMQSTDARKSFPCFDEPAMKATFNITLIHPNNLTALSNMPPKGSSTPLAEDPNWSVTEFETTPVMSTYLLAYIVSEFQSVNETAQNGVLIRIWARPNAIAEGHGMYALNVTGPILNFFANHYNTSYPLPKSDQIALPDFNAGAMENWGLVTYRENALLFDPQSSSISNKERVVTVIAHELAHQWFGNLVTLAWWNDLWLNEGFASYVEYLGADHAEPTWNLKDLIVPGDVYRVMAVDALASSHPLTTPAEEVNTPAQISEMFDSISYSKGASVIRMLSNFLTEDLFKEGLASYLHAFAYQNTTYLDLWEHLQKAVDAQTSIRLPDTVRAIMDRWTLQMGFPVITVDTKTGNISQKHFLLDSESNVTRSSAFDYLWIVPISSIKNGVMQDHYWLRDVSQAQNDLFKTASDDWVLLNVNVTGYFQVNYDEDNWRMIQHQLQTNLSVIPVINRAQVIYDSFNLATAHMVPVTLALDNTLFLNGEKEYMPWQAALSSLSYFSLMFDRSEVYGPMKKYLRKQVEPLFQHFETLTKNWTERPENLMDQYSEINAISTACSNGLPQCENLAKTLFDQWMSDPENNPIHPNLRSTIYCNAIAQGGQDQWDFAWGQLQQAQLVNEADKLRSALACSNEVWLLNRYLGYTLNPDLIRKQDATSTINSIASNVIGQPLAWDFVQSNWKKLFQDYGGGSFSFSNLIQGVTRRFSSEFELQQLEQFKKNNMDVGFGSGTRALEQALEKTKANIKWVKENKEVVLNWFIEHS
Simple rule here: IC50 less than 40 µM is true (1), otherwise false (0).

A record lists CSCC[C@H](NC(=O)N[C@@H](CS)C(=O)NC[C@H](N)Cc1ccccc1)C(=O)O . Is its IC50 below 40 µM?
true (1)

Lab log: compare recorded IC50 with 40 µM; is it strictly lower for CSCC[C@H](NC(=O)N[C@@H](CC(C)C)C(=O)NC[C@H](N)Cc1ccccc1)C(=O)O ?
true (1)

Answer whether the compound CC[C@H](C)[C@H](NC(=O)N[C@@H](CS)C(=O)NC[C@H](N)Cc1ccccc1)C(=O)O has IC50 strictly less than 40 µM
true (1)

Identify whether the compound N[C@@H](CNC(=O)[C@H](Cc1ccccc1)NC(=O)c1cc([N+](=O)[O-])cc([N+](=O)[O-])c1)Cc1ccccc1 records IC50 below 40 µM.
false (0)

Hello, I'm reviewing records and need to know if IC50 of CC(C)C[C@H](NC(=O)N[C@@H](CS)C(=O)NC[C@H](N)Cc1ccccc1)C(=O)O is below 40 µM. Could you check?
false (0)

Please indicate whether the reported IC50 of N[C@@H](CNC(=O)[C@H](CS)NC(=O)N[C@H](CS)C(=O)O)Cc1ccccc1 is strictly below 40 µM.
true (1)

Given CC(C)C[C@H](NC(=O)N[C@@H](Cc1ccccc1)C(=O)NC[C@H](N)Cc1ccccc1)C(=O)O , is recorded IC50 strictly lower than 40 µM?
false (0)

Find out if reported IC50 for NCCC[C@H](NC(=O)N[C@@H](CS)C(=O)NC[C@H](N)Cc1ccccc1)C(=O)O is less than 40 µM
true (1)

Strictly below 40 µM in IC50? NCCCC[C@H](NC(=O)N[C@@H](Cc1ccccc1)C(=O)NC[C@H](N)Cc1ccccc1)C(=O)O
false (0)
